tested on: HGGX6 (H3.3 G34R paediatric high-grade glioma line); experiment: growth inhibition (% activity, log2 RLU normalised to DMSO / staurosporine); higher = more growth inhibition; details: 33 µM
Quantity measured: growth inhibition (%)
Give bare numbers, in %.

>>> value_measured("CC(C)(C(=O)O)c1ccc(C(O)CCCN2CCC(C(O)(c3ccccc3)c3ccccc3)CC2)cc1 (centres undefined)")
-0.102
>>> value_measured("CCOC(=O)O[C@]1(C(=O)OCCl)CC[C@H]2[C@@H]3CCC4=CC(=O)C=C[C@]4(C)[C@H]3[C@@H](O)C[C@@]21C")
2.56
>>> value_measured("CCN1CCN(c2cc3c(cc2F)c(=O)c(C(=O)O)cn3C2CC2)CC1")
-0.135
>>> value_measured("CC1(C)S[C@@H]2[C@H](NC(=O)[C@H](NC(=O)N3CCN(S(C)(=O)=O)C3=O)c3ccccc3)C(=O)N2[C@H]1C(=O)O")
-0.1
>>> value_measured("NC(=O)OCC(COC(N)=O)c1ccccc1")
0.329
>>> value_measured("CCN1CCCC1CNC(=O)c1cc(S(N)(=O)=O)ccc1OC (centres undefined)")
0.912
>>> value_measured("CC1OC(n2cc(F)c(=O)[nH]c2=O)C(O)C1O (centres undefined)")
1.76
>>> value_measured("CNCCC(Oc1ccc(C(F)(F)F)cc1)c1ccccc1 (centres undefined)")
0.48

Please turn your attention to the following entry.
Task item: I'm curious: which growth inhibition was measured for CC(=O)OCC(=O)[C@@]1(O)CC[C@H]2[C@@H]3CCC4=CC(=O)C=C[C@]4(C)[C@@]3(Cl)[C@@H](Cl)C[C@@]21C tested on HGGX6?
Reply: -1.27

###

system: HNSC; experiment: growth inhibition (% activity, log2 RLU normalised to DMSO / staurosporine); higher = more growth inhibition; details: 33 µM
Would you mind telling me the reported growth inhibition of each entry?
Give bare numbers, in %.

>>> value_measured("CNC(=O)c1ccccc1Sc1ccc2c(/C=C/c3ccccn3)n[nH]c2c1")
60.4
>>> value_measured("CC(C)(O/N=C(\\C(=O)N[C@@H]1C(=O)N2C(C(=O)[O-])=C(C[n+]3ccccc3)CS[C@H]12)c1csc(N)n1)C(=O)O")
1.13
>>> value_measured("Oc1cc(O)c(Cl)cn1")
-3.27
>>> value_measured("Cc1nc(-c2ccc(OCC(C)C)c(C#N)c2)sc1C(=O)O")
-1.07
>>> value_measured("O.O=[Si]=O.O=[Si]=O.O=[Si]=O.O=[Si]=O.[O]=[Mg].[O]=[Mg].[O]=[Mg]")
-1.22

// for each molecule in input: emit growth inhibition
1. Nc1ccc(S(=O)(=O)Nc2nccs2)cc1
2. O.O.O.O.O=C([O-])CC(O)(CC(=O)[O-])C(=O)[O-].[Li+].[Li+].[Li+]
3. CC(C(=O)O)c1cccc(C(=O)c2ccccc2)c1 (stereo unspecified)
4. Nc1nc(=O)n([C@@H]2CS[C@H](CO)O2)cc1F
5. Cc1nc2n(c(=O)c1CCN1CCC(c3noc4cc(F)ccc34)CC1)CCCC2O (stereo unspecified)
6. Clc1ccc2nsnc2c1NC1=NCCN1

Reply:
5.4
26.2
0.455
0.206
23.4
-2.35

###

tested on: HGGX6; assay: growth inhibition (% activity, log2 RLU normalised to DMSO / staurosporine); higher = more growth inhibition; conditions: 33 µM
Quantity measured: growth inhibition (%)
Give bare numbers, in %.

Some entries whose results are on file:
>>> value_measured("Cc1nc(-c2ccc(OCC(C)C)c(C#N)c2)sc1C(=O)O")
3.15
>>> value_measured("OC(Cn1cncn1)(Cn1cncn1)c1ccc(F)cc1F")
1.42

// for each molecule in input: emit growth inhibition
1. NC[C@@H]1O[C@H](O[C@H]2[C@@H](O)[C@H](O[C@@H]3[C@@H](O)[C@H](N)C[C@H](N)[C@H]3O[C@H]3O[C@H](CO)[C@@H](O)[C@H](O)[C@H]3N)O[C@@H]2CO)[C@H](N)[C@@H](O)[C@@H]1O
2. COC(=O)/C=C/C(=O)OC
3. CN(C)CCc1c[nH]c2ccc(Cn3cncn3)cc12
4. CCC(C)n1ncn(-c2ccc(N3CCN(c4ccc(OCC5COC(Cn6cncn6)(c6ccc(Cl)cc6Cl)O5)cc4)CC3)cc2)c1=O (configuration not stated)
5. CCC[C@@H]1C[C@@H](C(=O)N[C@@H]([C@H]2O[C@H](SC)[C@H](O)[C@@H](O)[C@H]2O)[C@@H](C)O)N(C)C1
6. N=c1nc(N2CCCCC2)cc(N)n1O

Reply:
1. 1.84
2. -3.26
3. 1.15
4. 1.37
5. -0.292
6. -3.42
